- experimental.target: Neu5Ac(a2-8)Neu5Gc(a2-3)Gal(b1-4)GlcNAc
- assay.overview: glycan array binding signal (z-score within array); higher = stronger binding
- protocol.conditions: glycan notation: IUPAC condensed, linker removed
About 410 targets per protein were measured; listed, in parts, are those with the strongest signals and a random draw of the rest.
measure.name: glycan array binding signal (z-score)
One number for each entry.

Dear colleague, could you send me glycan array binding signal (z-score) for each of the items below? Thanks.
1. AFCNVH (Aspergillus fumigatus) (protein) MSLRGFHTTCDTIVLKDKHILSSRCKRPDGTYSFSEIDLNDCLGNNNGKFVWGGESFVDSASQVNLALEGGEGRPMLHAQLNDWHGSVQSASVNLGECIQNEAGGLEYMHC
2. SJCP1084 (Schistosoma japonicum) (protein) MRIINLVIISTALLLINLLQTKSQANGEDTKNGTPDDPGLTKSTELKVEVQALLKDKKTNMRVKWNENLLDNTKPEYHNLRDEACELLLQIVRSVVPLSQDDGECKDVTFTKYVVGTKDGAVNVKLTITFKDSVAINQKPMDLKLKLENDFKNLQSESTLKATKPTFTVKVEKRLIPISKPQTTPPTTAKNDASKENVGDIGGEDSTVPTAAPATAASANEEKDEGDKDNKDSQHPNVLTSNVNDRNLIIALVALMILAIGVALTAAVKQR

1. -0.48
2. -0.605

Can you share its glycan array binding signal (z-score)? I mean this binder: SAOUHSC 02783 (Staphylococcus aureus), Q5HD69 (protein) MIHSKKLTLGICLVLLIILIVGYVIMTKTNGRNAQIKDTFNQTLKLYPTKNLDDFYDKEGFRDQEFKKGDKGTWIVNSEMVIEPKGKDMETRGMVLYINRNTRTTKGYYFISEMTDDSNGRPKDDEKRYPVKMEHNKIIPTKPLPNDKLKKEIENFKFFVQYGNFKDINDYKDGDISYNPNVPSYSAKYQLNNDDYNVQQLRKRYDIPTKQAPKLLLKGDGDLKGSSVGSRSLEFTFVENKEENIYFTDSVQYTPSEDTRYESN
-1.02
